Molecular target: T1, PD1 extracellular domain, without fusion to other proteins (human, UniProt Q15116 25-170)
T1 construct: extracellular domain; also called unfused PD1; monomeric PD1
T1 sequence (Q15116 25-170): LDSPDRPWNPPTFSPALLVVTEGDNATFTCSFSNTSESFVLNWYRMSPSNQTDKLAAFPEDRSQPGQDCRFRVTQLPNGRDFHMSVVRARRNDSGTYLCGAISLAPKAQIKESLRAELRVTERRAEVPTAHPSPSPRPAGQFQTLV
Test: ELISA, plate coated with PD1 extracellular domain without Fc fusion, OD405

{"binder": "M2-5 (antibody, V domains shown, Expressed as human IgG4/kappa in 293F or Expi293 cells; also called 397-27-93) VH: QVQLVESGGDVVQPGGSLRLSCAASGVVFSDYGLYWVRQAPGKGLEWVALIWYDGSKKFYADSVKGRFSISRDNSKNMLYLQMNNLRADDSAIYYCSRGIRQGPWFAYWGQGTRVTVSP VL: EIVLTQSPATLSLSPGERATLSCRASQSISSDLTWFQQKPGQAPRLIIYDASNRATGIPARFSGSGSGTDFTLTISSLEPEDFVVYYCLQRSDWPLTFGGGTKVEIK", "binding result": "binds"}
